This collection of values is drawn from patent US11110091B2.

test system: human Peripheral Blood Mononuclear Cell (PMBC); experiment: PBMC assay: cytokine (IFN-α) stimulation at 24 hours; assay type: cell-based; conditions: lowest concentration stimulating IFN-α production at least 3-fold over background, Luminex, read-out: IFN MEC
Reported property: minimal effective concentration

[in] State the recorded minimal effective concentration for this entry: CCCCOc1nc(N)c2c(n1)N(Cc1cccc(CN3CCC(C(=O)O)CC3)c1)CC(=O)N2
[out] > 0.03 µM

[in] State the recorded minimal effective concentration for this entry: CCCCOc1nc(N)c2c(n1)N(Cc1ccc3c(c1)CCNC3)CC(=O)N2
[out] ≤ 0.03 µM

[in] State the recorded minimal effective concentration for this entry: CCCCOc1nc(N)c2c(n1)N(Cc1cccc(CN3CCN(C)CC3)c1)CC(=O)N2
[out] ≤ 0.03 µM

Working through the 4 compounds below one at a time, give minimal effective concentration for each.
1. CS(=O)(=O)CCOc1nc(N)c2c(n1)N(Cc1cccc(CN3CCCC3)c1)CC(=O)N2
2. CCCCNc1nc(N)c2c(n1)N(Cc1ccnc(N3CCOCC3)c1)CC(=O)N2
3. Nc1nc(OCC2CCOC2)nc2c1NC(=O)CN2Cc1cccc(CN2CCCC2)c1 (stereo not shown)
4. Nc1nc(OCCn2ccnc2)nc2c1NC(=O)CN2Cc1cccc(CN2CCCC2)c1

[out]
1. > 0.03 µM
2. > 0.03 µM
3. > 0.03 µM
4. > 0.03 µM

Working through the 5 compounds below one at a time, give minimal effective concentration for each.
1. CCCCOc1nc(N)c2c(n1)N(Cc1cccc(CN3CCCC3)c1)C1(CC1)C(=O)N2
2. COP(=O)(CCOc1nc(N)c2c(n1)N(Cc1cccc(CN3CCCC3)c1)CC(=O)N2)OC
3. CCCN(C)C(=O)c1nc(N)c2[nH]c(=O)c(=O)n(Cc3ccc(CN4CCCC4)cc3)c2n1
4. CCCCOc1nc(N)c2c(n1)N(Cc1cccc(CN3CCCC3)c1)C(O)C(=O)N2 (stereo not shown)
5. CCCCOc1nc(N)c2c(n1)N(Cc1ccc3c(c1)CNCC3)CC(=O)N2

[out]
> 0.03 µM
> 0.03 µM
≤ 0.03 µM
≤ 0.03 µM
≤ 0.03 µM

Working through the 2 compounds below one at a time, give minimal effective concentration for each.
1. CC(C)(C)CNc1nc(N)c2c(n1)N(Cc1cccc(CN3CCCC3)c1)CC(=O)N2
2. Nc1nc(N[C@@H]2CCOC2)nc2c1NC(=O)CN2Cc1cccc(CN2CCCC2)c1

[out]
> 0.03 µM
> 0.03 µM

Working through the 2 compounds below one at a time, give minimal effective concentration for each.
1. CC1(COc2nc(N)c3c(n2)N(Cc2cccc(CN4CCCC4)c2)CC(=O)N3)CC1
2. CCCN(C)C(=O)c1nc(N)c2c(n1)N(Cc1cccc(CN3CCCC3)c1)CC(=O)N2

[out]
1. > 0.03 µM
2. > 0.03 µM

---

tested on: human Peripheral Blood Mononuclear Cell (PMBC); assay: PBMC assay: cytokine (IFN-α) stimulation at 24 hours; format: cell-based; conditions: lowest concentration stimulating IFN-α production at least 3-fold over background, Luminex, read-out: IFN MEC
Reported property: minimal effective concentration

Recorded results for 5 molecules are shown here.
[in] State the recorded minimal effective concentration for this entry: CCC[C@@H](C)Oc1nc(N)c2c(n1)N(Cc1ccc(CN3CCCC3)cc1)CC(=O)N2 [Example 60]
[out] > 0.03 µM

[in] State the recorded minimal effective concentration for this entry: Nc1nc(OCC2CCCO2)nc2c1NC(=O)CN2Cc1ccnc(N2CCOCC2)c1 (stereo not drawn) [Example 67]
[out] > 0.03 µM

[in] State the recorded minimal effective concentration for this entry: CCC[C@H](C)Oc1nc(N)c2c(n1)N(Cc1cccc(CN3CCCC3)c1)CC(=O)N2 [Example 59]
[out] ≤ 0.03 µM

[in] State the recorded minimal effective concentration for this entry: Nc1nc(O[C@@H]2C[C@@H]3C[C@@H]3C2)nc2c1NC(=O)CN2Cc1cccc(CN2CCCC2)c1 [Example 68]
[out] ≤ 0.03 µM

[in] State the recorded minimal effective concentration for this entry: CCCCOc1nc(N)c2c(n1)N(Cc1cccc(CN3CCC(C(=O)OC)CC3)c1)CC(=O)N2 [Example 54]
[out] > 0.03 µM

Working through the 6 molecules below one at a time, give minimal effective concentration for each.
1. Nc1nc(OCC2CC2)nc2c1NC(=O)CN2Cc1cccc(CN2CCCC2)c1 [Example 5]
2. COCCOc1nc(N)c2[nH]c(=O)c(=O)n(Cc3cccc(CN4CCCC4)c3)c2n1 [Example 91]
3. CCCCCOc1nc(N)c2c(n1)N(Cc1cccc(CN3CCCC3)c1)CC(=O)N2 [Example 12]
4. CCC[C@H](C)Oc1nc(N)c2c(n1)N(Cc1ccc(C)nc1)CC(=O)N2 [Example 116]
5. Cc1ccc(CN2CC(=O)Nc3c(N)nc(OCC4CCOC4)nc32)cn1 (stereo not drawn) [Example 115]
6. CCCCOc1nc(N)c2[nH]c(=O)c(=O)n(Cc3ccccc3CN3CCCC3)c2n1 [Example 89]

[out]
1. > 0.03 µM
2. > 0.03 µM
3. > 0.03 µM
4. > 0.03 µM
5. > 0.03 µM
6. ≤ 0.03 µM

Working through the 2 molecules below one at a time, give minimal effective concentration for each.
1. CCCCOc1nc(N)c2c(n1)N(Cc1ccc(C)nc1)CC(=O)N2 [Example 111]
2. CCC[C@H](C)Oc1nc(N)c2c(n1)N(Cc1ccc(CN3CCCC3)cc1)CC(=O)N2 [Example 61]

[out]
["> 0.03 µM", "≤ 0.03 µM"]

Working through the 2 molecules below one at a time, give minimal effective concentration for each.
1. COCCOc1nc(N)c2c(n1)N(Cc1ccc(-c3ccc(CN4CCCC4)cc3)cc1)CC(=O)N2 [Example 98]
2. Nc1nc(OCc2cccnc2)nc2c1NC(=O)CN2Cc1cccc(CN2CCCC2)c1 [Example 16]

[out]
["≤ 0.03 µM", "> 0.03 µM"]
